Where do the numbers come from? From ChEMBL document CHEMBL4000227.

- tested_system: Amino acid transporter (Rattus norvegicus)
- Sequence (Q9Z1J7 whole entry): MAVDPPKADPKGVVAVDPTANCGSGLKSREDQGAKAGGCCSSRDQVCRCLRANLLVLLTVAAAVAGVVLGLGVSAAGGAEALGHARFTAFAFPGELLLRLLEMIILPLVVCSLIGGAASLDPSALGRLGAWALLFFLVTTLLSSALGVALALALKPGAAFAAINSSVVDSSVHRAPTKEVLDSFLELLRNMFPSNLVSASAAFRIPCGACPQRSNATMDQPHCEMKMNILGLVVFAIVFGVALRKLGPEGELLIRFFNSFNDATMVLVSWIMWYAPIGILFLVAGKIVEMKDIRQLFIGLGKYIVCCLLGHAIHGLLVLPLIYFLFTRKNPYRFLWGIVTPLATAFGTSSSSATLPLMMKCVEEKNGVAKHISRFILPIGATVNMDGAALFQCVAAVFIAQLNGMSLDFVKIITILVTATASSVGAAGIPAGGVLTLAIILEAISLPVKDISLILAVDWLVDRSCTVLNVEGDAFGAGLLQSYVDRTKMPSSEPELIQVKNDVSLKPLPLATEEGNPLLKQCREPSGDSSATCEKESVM
- method_summary: Inhibition of rat ASCT2 expressed in HEK293 cells assessed as inhibition of L-alanine/Na+ exchange by measuring reduction in SCN anion inward current in presence of NaCl and NaSCN by whole cell patch-clamp method
- recorded_conditions: read-out: Ki(app)
Known Ki of a selection of compounds
reported_endpoint: Ki (µM)

[
  {
    "compound": "O=C(O)[C@@H]1C[C@@H](Cc2ccc(Cl)cc2Cl)CN1",
    "tested_system": "Amino acid transporter (Rattus norvegicus)",
    "reported_endpoint": "Ki",
    "observed_value": 30
  },
  {
    "compound": "Cc1ccccc1C[C@H]1CNC(C(=O)O)C1 (single isomer, unassigned)",
    "tested_system": "Amino acid transporter (Rattus norvegicus)",
    "reported_endpoint": "Ki",
    "observed_value": 38
  }
]
